Let's look at some pIC50 data for Protein O-GlcNAcase (Homo sapiens) that I collected from the literature.
pIC50: −log10 of the molar value.

Solved entries:
>  <COMPOUND>
Cc1cc(C(=O)Nc2ccc(CN3CCCC3c3ccc4c(c3)OCCO4)cc2)ccn1 (racemic)

>  <pIC50>
6.00 to 6.70

$$$$
>  <COMPOUND>
c1cnn(-c2ccc(CN3CCCC3c3ccc4c(c3)OCCO4)cc2)c1 (racemic)

>  <pIC50>
6.70 to 7.30

$$$$
>  <COMPOUND>
CCCCCCN1[C@H](CO)[C@H](O)[C@@H](O)[C@H]1CC(=O)NCCO

>  <pIC50>
4.02

$$$$
>  <COMPOUND>
CCNC(=O)C[C@@H]1[C@@H](O)[C@H](O)[C@@H](CO)N1CCOc1ccc(Cl)cc1Cl

>  <pIC50>
6.29

$$$$
>  <COMPOUND>
CC(c1ccc2scnc2c1)N1CCN(c2ncc(S(C)(=N)=O)cn2)CC1 (racemic)

>  <pIC50>
> 7.30

$$$$

We next turn to a different compound, shown below.
*Q* Record CCNC(=O)C[C@@H]1N[C@H](CO)[C@@H](O)[C@@H]1O : what is its pIC50 with Protein O-GlcNAcase (Homo sapiens)?
*A* 4.54

---

Assembled from different publications: IC50 for Protein O-GlcNAcase (Homo sapiens).

Below, each entry is followed by its recorded IC50 result.
>  <COMPOUND>
COc1ccc2c(c1)CCN(Cc1ccc3scnc3c1)C(C)C2 (racemic)

>  <IC50>
1 to 10 µM

$$$$
>  <COMPOUND>
Cn1cc(-c2ccc(CN3CCCC3c3ccc4c(c3)OCC4)cc2)cn1 (racemic)

>  <IC50>
< 0.05 µM

$$$$
>  <COMPOUND>
CCCCCCN1[C@H](CC(=O)NC2CC2)[C@H](O)[C@H](O)[C@H]1CO

>  <IC50>
1.06 µM

$$$$

*Q* // query IC50 value for entry COc1ccc2c(c1)CCN(C(C)c1ccc3c(c1)OCC3)CC2 (single isomer, unassigned)
*A* 0.05 to 0.2 µM

---

We begin with IC50 values for UniProt O60502, as collected from the published literature.

Reference set, count: 6
>  <MOLECULE>
CC(=O)Nc1ncc(CN2CCc3nncn3CC2)s1 (racemic)

>  <MEASUREMENT>
< 50 nM

$$$$
>  <MOLECULE>
CC(c1ccc2scnc2c1)N1CCc2c([Si](C)(C)C)nn(C)c2CC1 (racemic)

>  <MEASUREMENT>
< 50 nM

$$$$
>  <MOLECULE>
CC(=O)Nc1cnc2c(c1)CCN(C(C)c1ccc3scnc3c1)CC2 (racemic)

>  <MEASUREMENT>
< 50 nM

$$$$
>  <MOLECULE>
CNC(=O)C[C@@H]1[C@H](O)[C@H](O)[C@@H](CO)N1CCC1CCCCC1

>  <MEASUREMENT>
14 nM

$$$$
>  <MOLECULE>
Cc1csc(-c2ccc(CN3CCCC3c3ccc4c(c3)OCCO4)cc2)n1 (racemic)

>  <MEASUREMENT>
200 to 1000 nM

$$$$
>  <MOLECULE>
CNC(=O)C[C@@H]1[C@H](O)[C@H](O)[C@@H](CO)N1CCCCC(C)C

>  <MEASUREMENT>
8 nM

$$$$

*Q* What is its IC50 for UniProt O60502? Entry: CC(=O)Nc1ncc(CN2CCC3(CC2)NC(=O)N(Cc2ccc(C(F)(F)F)nc2)C3=O)s1
*A* 50 to 200 nM

*Q* Now the molecule Cc1cc(-c2ccncc2)ccc1CN1CCCC1c1ccc2c(c1)OCCO2 (racemic)
*A* 200 to 1000 nM

*Q* Same question for CCNC(=O)C[C@@H]1[C@@H](O)[C@H](O)[C@@H](CO)N1CCCc1ccc(Sc2ccccc2)cc1 please.
*A* 7 nM
